pKi for Prothrombin (Homo sapiens), merged from several publications.
pKi: −log10 of the molar value.

Sample answers from the record:
Cc1cc(-c2ccccc2)ccc1C(=O)N[C@@H](CCCNC(=N)N)B1O[C@@H]2C[C@@H]3C[C@@H](C3(C)C)[C@]2(C)O1    > 6.30
C[C@H](NC(=O)[C@@H](CO)NS(=O)(=O)Cc1cccc(C(=O)O)c1)C(=O)NCc1ccc(C(=N)N)cc1    5.08
CC[C@@H](C(=O)N1CCOCC1)N1CC[C@H](NS(=O)(=O)CCc2ccc(Br)cc2)C1=O    > 7.00

For the next question, use this compound.
Prompt line: GET pKi where system = Prothrombin (Homo sapiens) and item = CC[C@H](C)[C@@H](C(=O)N1CCOCC1)N1CC[C@H](NS(=O)(=O)CC(F)(F)c2ccc(Cl)cc2)C1=O
Response line: > 7.60

----------
pKi: −log10 of the molar value.
pKi for Prothrombin (Homo sapiens), merged from several publications.

Sample answers from the record:
CC1(C)C2CC3OB([C@H](CCCCN)NC(=O)Cn4nc(CO)nc4CCc4ccccc4)OC3(C)C1C2 (single isomer, unassigned)    > 4.30
CN(C)[C@H](Cc1ccccc1)C(=O)N1CCCC1C(=O)NC(CCCNS(C)(=O)=O)B1OC2CC3CC(C3(C)C)C2(C)O1 (stereo partly drawn)    > 6.30
O=C([C@H](Cc1cccs1)N1CC[C@H](NS(=O)(=O)CCc2ccc(Cl)cc2)C1=O)N1CCOCC1    > 7.60

Prompt line: Provide measured pKi value, entry: CC1(C)C2CC3OB(C(Cc4cccc(C#N)c4)NC(=O)C4CCCN4C(=O)[C@@H](Cc4cccnc4)NS(C)(=O)=O)OC3(C)C1C2 (stereo partly drawn)
Response line: > 6.30

Prompt line: Provide measured pKi value, entry: COCC[C@@H](C(=O)N1CCOCC1)N1CC[C@H](NS(=O)(=O)CCc2ccc(Cl)s2)C1=O
Response line: > 7.60

Prompt line: Provide measured pKi value, entry: CC1(C)C2CC3OB(C(Cc4cccc(C#N)c4)NC(=O)C4CCCN4C(=O)C(Cc4cccs4)NS(C)(=O)=O)OC3(C)C1C2 (stereo not drawn)
Response line: > 6.30

----------
Ki for Prothrombin (Homo sapiens, UniProt P00734), merged from several publications.

Prompt line: GET Ki where system = Prothrombin (Homo sapiens, UniProt P00734) and item = CC(=O)NC(Cc1ccccc1)C(=O)N1CCCC1C(=O)NC(Cc1ccc(C#N)cc1)B1OC2CC3CC(C3(C)C)C2(C)O1 (stereo not shown)
Response line: < 500 nM

Prompt line: GET Ki where system = Prothrombin (Homo sapiens, UniProt P00734) and item = O=C(O)CN[C@H](CC1CCCCC1)C(=O)N1CCC[C@H]1C(=O)NCC1CCc2n[nH]cc2C1 (stereo partly shown)
Response line: 280 nM

Prompt line: GET Ki where system = Prothrombin (Homo sapiens, UniProt P00734) and item = CC(C)(C)OC(=O)NC(Cc1ccccc1)C(=O)N1CCCC1C(=O)NC(CCCNC(N)=O)B1OC2CC3CC(C3(C)C)C2(C)O1 (stereo not shown)
Response line: < 500 nM

Prompt line: GET Ki where system = Prothrombin (Homo sapiens, UniProt P00734) and item = Cc1ncc(CNc2ccc(C(=N)N)cc2)c(C)c1OCc1cccc(C(=N)N)c1
Response line: 31 nM

Prompt line: GET Ki where system = Prothrombin (Homo sapiens, UniProt P00734) and item = CNC(Cc1ccccc1)C(=O)N1CCCC1C(=O)NC(Cc1cccc(C#N)c1)B1OC2CC3CC(C3(C)C)C2(C)O1 (stereo not shown)
Response line: < 500 nM

Prompt line: GET Ki where system = Prothrombin (Homo sapiens, UniProt P00734) and item = CN(C)C(Cc1ccccc1)C(=O)N1CCCC1C(=O)NC(Cc1cccc(C#N)c1)B(O)O (single isomer, unassigned; isomer i)
Response line: < 500 nM

Prompt line: GET Ki where system = Prothrombin (Homo sapiens, UniProt P00734) and item = CS(=O)(=O)N[C@H](Cc1ccc(F)cc1)C(=O)N1CCC[C@H]1C(=O)N[C@@H](CCCNC=N)B(O)O.Cl
Response line: < 500 nM

----------
Ki for Prothrombin (Homo sapiens, UniProt P00734), merged from several publications.

CN(CC(=O)NC(CCCNC=N)B(O)O)C(=O)C(Cc1ccccc1)NS(C)(=O)=O (stereo not shown)    < 500 nM

Prompt line: GET Ki where system = Prothrombin (Homo sapiens, UniProt P00734) and item = CC(C)(C)OC(=O)N[C@H](Cc1ccccn1)C(=O)N1CCCC1C(=O)NC(Cc1cccc(C#N)c1)B1OC2CC3CC(C3(C)C)C2(C)O1 (stereo partly shown)
Response line: < 500 nM

Prompt line: GET Ki where system = Prothrombin (Homo sapiens, UniProt P00734) and item = CC1(C)C2CC3OB(C(CCCNC=N)NC(=O)c4ccc(-c5ccccc5)cc4)OC3(C)C1C2 (stereo not shown)
Response line: < 500 nM

Prompt line: GET Ki where system = Prothrombin (Homo sapiens, UniProt P00734) and item = N=C(N)N1CCC[C@@H](CNC(=O)C[C@H](NS(=O)(=O)c2ccc3ccccc3c2)C(=O)N(CC(=O)O)C2CCCC2)C1
Response line: 0.82 nM

Prompt line: GET Ki where system = Prothrombin (Homo sapiens, UniProt P00734) and item = Cc1ccc(NS(=O)(=O)Cc2ccccc2)c(=O)n1CCCNc1ccc2cc[nH]c2c1
Response line: ≤ 100 nM

Prompt line: GET Ki where system = Prothrombin (Homo sapiens, UniProt P00734) and item = CC(C)[C@@H](NC(=O)[C@H](NC(=O)c1cccc(C(=N)N)c1)c1ccccc1)C(N)=O
Response line: 17000 nM

Prompt line: GET Ki where system = Prothrombin (Homo sapiens, UniProt P00734) and item = CC1(C)C2CC3OB([C@H](CCCCN)NC(=O)Cn4nc(Cc5ccccc5)nc4-c4ccccc4)OC3(C)C1C2 (stereo partly shown)
Response line: < 500 nM

----------
pKi for UniProt P00734, merged from several publications.
pKi: −log10 of the molar value.

Sample answers from the record:
O=C([C@H](Cc1ncno1)N1CC[C@H](NS(=O)(=O)CCc2ccc(Cl)s2)C1=O)N1CCOCC1    > 8.00
NCCCC[C@H](NC(=O)Cn1cnc(Cc2ccccc2)n1)B(O)O    > 6.30

Prompt line: GET pKi where system = UniProt P00734 and item = CCCc1nc(Cc2ccccc2)nn1CC(=O)N[C@@H](CCCCN)B1OC2CC3CC(C3(C)C)C2(C)O1 (single isomer, unassigned)
Response line: > 6.30

Prompt line: GET pKi where system = UniProt P00734 and item = CC1(C)C2CC3OB([C@H](CCCCN)NC(=O)Cn4ncnc4CCc4ccccc4)OC3(C)C1C2 (single isomer, unassigned)
Response line: > 6.30

Prompt line: GET pKi where system = UniProt P00734 and item = COc1cc(C(CNS(=O)(=O)c2ccccc2)Nc2ccc(C(=N)N)cc2)ccc1OC(CCl)c1ccccc1 (stereo not shown)
Response line: 9.00

Prompt line: GET pKi where system = UniProt P00734 and item = NCCCC[C@H](NC(=O)c1ccc(-c2ccccc2)nc1)B(O)O
Response line: > 4.30

Prompt line: GET pKi where system = UniProt P00734 and item = CSCc1nc(Cc2ccccc2)n(CC(=O)N[C@@H](CCCCN)B2O[C@@H]3C[C@@H]4C[C@@H](C4(C)C)[C@]3(C)O2)n1
Response line: > 6.30

----------
Ki for Prothrombin (Homo sapiens), merged from several publications.

Cc1nc(Cc2ccccc2)n(CC(=O)N[C@@H](CCCCN)B2O[C@@H]3C[C@@H]4C[C@@H](C4(C)C)[C@]3(C)O2)n1    < 500 nM
CC(=O)Nc1ccc(S(=O)(=O)NC(Cc2ccccc2)C(=O)N2CCCC2C(=O)NC(CCCNS(C)(=O)=O)B2OC3CC4CC(C4(C)C)C3(C)O2)cc1 (stereo not drawn)    < 500 nM

For the next question, use this molecule.
Prompt line: GET Ki where system = Prothrombin (Homo sapiens) and item = CNC(=N)c1ccc(C=C2CCCCC(=Cc3ccc(C(=N)N)cc3)C2=O)cc1
Response line: 363 nM

----------
pKi: −log10 of the molar value.
pKi for Prothrombin (Homo sapiens, UniProt P00734), merged from several publications.

Sample answers from the record:
CC1(C)[C@@H]2C[C@H]3OB([C@H](CCCCN)NC(=O)c4ccc(-c5ccccc5)nc4)O[C@@]3(C)[C@H]1C2    > 4.30
CO[C@H](C)[C@@H](C(=O)N1CCOCC1)N1CC[C@H](NS(=O)(=O)CCc2ccc(Cl)s2)C1=O    > 8.00
COC[C@@H](C(=O)N1CCOCC1)N1CC[C@H](NS(=O)(=O)CC2CCc3cc(Cl)ccc32)C1=O (some centres unmarked)    > 6.70
CC1(C)C2CC3OB([C@H](CCCCN)NC(=O)Cn4cnc(CCc5ccccc5)n4)OC3(C)C1C2 (single isomer, unassigned)    > 6.30
CC(=O)O.CCCCN(CCNC(=O)C(=O)OC)C(=O)[C@H](CC(=O)NC[C@@H]1CCCN(C(=N)N)C1)NS(=O)(=O)c1ccc2ccccc2c1    9.36
Cc1ccc(NS(=O)(=O)Cc2ccccc2)c(=O)n1CCCNc1ccc(N)nc1    6.52 to 7.00
Cc1ccc(NS(=O)(=O)Cc2ccccc2)c(=O)n1CCCN(C)c1ccncc1    ≥ 7.00
COC[C@@H](C(=O)N1CCOCC1)N1CC[C@H](NS(=O)(=O)CC2COc3cc(Cl)ccc32)C1=O (some centres unmarked)    > 7.00

Prompt line: Provide measured pKi value, entry: Cc1c(CNc2ccc(C(=N)N)cc2)cnc(CO)c1OCc1cccc(C(=N)N)c1
Response line: 7.41

Prompt line: Provide measured pKi value, entry: CCOC[C@@H](C(=O)N1CCOCC1)N1CC[C@H](NS(=O)(=O)CCc2ccc(Cl)s2)C1=O
Response line: > 8.00

Prompt line: Provide measured pKi value, entry: N=C(N)c1ccc(/C=C2/CC(C(=O)O)C/C(=C/c3ccc(C(=N)N)cc3)C2=O)cc1 (centres unmarked)
Response line: 3.92

Prompt line: Provide measured pKi value, entry: CC1(C)C2CC3OB(C(Cc4cccc(C#N)c4)NC(=O)C4CCCN4C(=O)CSc4ccncc4)OC3(C)C1C2 (centres unmarked)
Response line: > 6.30

Prompt line: Provide measured pKi value, entry: CC(C)(C)OC(=O)NC(Cc1ccccc1)C(=O)N1CCCC1C(=O)NC(Cc1cccc(C#N)c1)B1OC2CC3CC(C3(C)C)C2(C)O1 (centres unmarked)
Response line: > 6.30

Prompt line: Provide measured pKi value, entry: CC1(C)[C@@H]2C[C@H]3OB([C@H](CCCCN)NC(=O)Cn4nc(-c5ccccc5)nc4Cc4ccccc4)O[C@@]3(C)[C@H]1C2
Response line: > 6.30
